# Tested on: NCI 60 cancer cell lines
# test_method_notes: NCI anticancer screening over a panel of 60 cancer cells, single concentration 10 µM
# Format: cell-based, human
# measurement_parameters: Homo sapiens, IGROV-1, Ovarian cancer IGROV1, 10 μM; read-out: Growth inhibition (GI %)
outcome_measure: inhibition at 10 µM (%)

> print(dat)
                              smiles.string  relation.operator  result
1  CC(=O)c1cnn(-c2cc(=O)[nH]c3ccc(Cl)cc23)c1C                  =    7.41
2  CC(=O)c1cnn(-c2cc(=O)[nH]c3ccc(C)cc23)c1C                  <       5
3  COc1ccc2[nH]c(=O)cc(-n3ncc(C(C)=O)c3C)c2c1                  <       5
4  CC(=O)c1cnn(-c2cc(=O)[nH]c3ccc(Br)cc23)c1C                  <       5
5    CC(=O)c1cnn(-c2cc(=O)[nH]c3ccccc23)c1C                  =    37.9
